test system: K4 kissing-loop RNA reporter; experiment: apparent KD of K4 kissing-loop reporter; higher = weaker reporter binding; settings: Eterna round: R107; input ligand: theophylline 20 uM
reportedMetric: apparent KD of K4 kissing-loop reporter (nM)
Return type: number; implicit unit nM.

| sequenceData | targetDesc | apparent KD of K4 kissing-loop reporter, nM |
| --- | --- | --- |
| GGAUAGGAUAGAGGAUAUGGAAAACACAGAAAUAACUUGUUGUGUUUAUCCAUAGGGAGUGAUGUUCCAGAAGGCUGUCCUAUCG [MatMod 20 - Jieux - Exclusion - FMN B] | K4 kissing-loop RNA reporter | 219 |

query: I would be grateful if you could share the reported apparent KD of K4 kissing-loop reporter for AAACAUUGGUCGGAUACCAGCUGAUCGGAAACGAUCUUGCUGGAGUGAUGUUCCAAGUAAAGCCCUUGGCAGCCGACCGAUGAAA [MAT - Same State Theophlline B - Mod of Eli - D20] .
result: 135

query: I would be grateful if you could share the reported apparent KD of K4 kissing-loop reporter for UAAGAAUAAGUAGCAGUGAUGUUGCUACUACGAGGACCGGUACGGCCGCCACUCGAGUCCUCGAAACAUCACUGAACGAGGAAUA [(H,1)-(H,2)-(Trp1)-(Trp2)-(T)'-(H)'-(T)''] .
result: 136

query: I would be grateful if you could share the reported apparent KD of K4 kissing-loop reporter for GGAGUUACCUGGGAUACCAGUCGGAGUCCUAGAGCUCGGAGUGAUGUUCUGGGAUGUUUCGGCCCUUGGCAGCUCUGGGACUCCC [#2 Exclusion - Theophylline B Attempt #11 (HarryS)] .
result: 921

query: I would be grateful if you could share the reported apparent KD of K4 kissing-loop reporter for UGAUUGCCAGUGAUGUUGGCAGUUUCUGAAGGAGCGCGUGAAAACGCAGGUAGGUCGCAGAUUAGUGCCAAUUGAUCGAAAGAUC [KL-XArg-A4] .
result: 193

* * *

test system: MS2 coat protein; test: apparent KD of MS2 coat protein; higher = weaker reporter binding; conditions: Eterna round: R107; input ligand: theophylline 2 mM
We use 0.03 µM as the dividing line for apparent KD of MS2 coat protein: on or above the line is 1, below is -1.

| sequenceData | label |
| --- | --- |
| ACCGAAAGCUCACAUGAGGAUCACCCAUGUCGAGGACCGGUACGGCCGCCACUCGGCAAAUAUAAGGGUGGACGCGUCUCUGCGU [Soramasoso] | 1 |
| CACGAAAGAUCGGCCGCCACUAACCUGUGUGUACUAGCACAUGAGGAUCACCCAUGUUCUUGCGUUAGGACCGGGAUUGAGCGUG [#04 Exclusion Tryptophan B] | -1 |
| UGGUAGGUAGGAAGGAGCGCAUACUUCACAUGAGGAUCACCCAUGUCGAGACGUGAGUCAGUGCAGGUAGGUCGCCUAGUUAUGA [Same State - Arginine B (Freestyle 23)] | 1 |
| UUAUGCAGGUCGGCCGCCACUACACACAUGAGGAUCACCCAUGUAGUUACUGGGUGAAGUGGCAGUAGGACCGGGACCUGCAUAU [Brourdmod05] | 1 |

query: Decide: apparent KD of MS2 coat protein of AUACAUGAGGAUCACCCAUGUAUAGAUGAAGGAGCGACCAGAGGGUCAGGUAGGUCGCAUCACAUGAGGAUCACCCAUGUACUUA [DOUBLE!!! :-D #9] >= 0.03 µM?
result: 1

query: Decide: apparent KD of MS2 coat protein of CGCAACAUGAGGAUCACCCAUGUAAUGACGCGAGGACCGGUACGGCCGCCACUCGCCUGGCAGUGAGCGCAUGCGGCCUGGGUAU [Exclusion Tryp A GF8] >= 0.03 µM?
result: -1

query: Decide: apparent KD of MS2 coat protein of CUACAUGUAGUUAAACCGGUCAACAAUAAUCGAGGACCGGUACGGCCGCCACUCGAUGUGUUAUACACAUGAGGAUCACCCAUGU [Tryptophan A 15] >= 0.03 µM?
result: -1

query: Decide: apparent KD of MS2 coat protein of ACAUGAGGAUCACCCAUGUAUUCAUCAGAAGGAGCGUGGAAUAACACAGGUAGGUCGCUGAUUAUUUGUUAAAUAAAUUCGUGUA [JR_Nu_SSArginiA_Sub023] >= 0.03 µM?
result: -1

query: Decide: apparent KD of MS2 coat protein of AGAGUCUAGUCGGCCGCCACUCAUGUCCUAAGGACAUGAGGAUCACCCAUGUACCAAAGGUACAUGAGGACCGGGACUGGACUCA [Omei Tryp B SS C v1] >= 0.03 µM?
result: 1

query: Decide: apparent KD of MS2 coat protein of GCGCGGCGAGUGCGGCGUGUUCCGCUCCGUCGAGGACCGGUACGGCCGCCACUCGACAUGAGGAUCACCCAUGUCGCCGCGCGUC [Exclusion - Tryptophan A Attempt #1] >= 0.03 µM?
result: -1

query: Decide: apparent KD of MS2 coat protein of GGCCCGGACUUGGAAUGGGUGUUUCCCUCACGAGGACCGGUACGGCCGCCACUCGAAGACAUGAGGAUCACCCAUGUAGUCGACA [Qudirate] >= 0.03 µM?
result: 1

query: Decide: apparent KD of MS2 coat protein of AUGGACGGCGAUCUGGGUUUACCAGAUCGGCGAGGACCGGUACGGCCGCCACUCGUGUUUAUUUAACAUGAGGAUCACCCAUGUA [SSTA #2] >= 0.03 µM?
result: 1

* * *

system: MS2 coat protein; test: apparent KD of MS2 coat protein; designed switch direction (-1 OFF switch, 1 ON switch): 1; higher = weaker reporter binding; conditions: input ligand: none
reportedMetric: apparent KD of MS2 coat protein (nM)
Return type: number; implicit unit nM.

| sequenceData | unitAbbrev | apparent KD of MS2 coat protein |
| --- | --- | --- |
| GCUACCAUUGAAGCCAACAUGAGGAUCACCCAUGUAUGUUGGUAGGAUAUCGUUUGCAAAGCAAACGAGAAGGGCUAAGGUAGC [Mat - Same State NG 3 - JL Mod - D79] (Eterna round: R96, puzzle: Same State NG 3) | nM | 74.4 |

query: Query apparent KD of MS2 coat protein on MS2 coat protein for GAAUAGUUGAGAGGAUAUCUAUUAUUGUAGGAUAGAGAAGGUUUUAACAUGAGGAUCACCCAUGUAGGACUAUAUAUGUGAAUA [Parity 99 - Jieux - Same State NG 1] (Eterna round: R96, puzzle: Same State NG 1)
result: 15.3

* * *

test system: K4 kissing-loop RNA reporter; test: apparent KD of K4 kissing-loop reporter; higher = weaker reporter binding; conditions: Eterna round: R107; input ligand: FMN 200 uM;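 also: bound reporter read as fluorescence of individual clusters on recovered sequencing chips by microscopy, with normalized cluster intensities fitted with a binding model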
reportedMetric: apparent KD of K4 kissing-loop reporter

query: Query apparent KD of K4 kissing-loop reporter on K4 kissing-loop RNA reporter for CGAGUGAUGUUCGUUUAUUACUCUGUUUGACAGGAUAUGCGGAAACGCAGAAGGGUCACCUUUGAGUUAGACGGAGUUAUUUUUU [Ex FMN A 22]
result: 539 nM

query: Query apparent KD of K4 kissing-loop reporter on K4 kissing-loop RNA reporter for UCGAAAUGCGACUCCUAGUUACACCGGGAAGGAGCGUGGAUAACCGCAGGUAGGUCGCCCGGAAGCCGGACCAGUGAUGUUGGUC [Exclusion Arginine A Gf 28]
result: 207 nM

query: Query apparent KD of K4 kissing-loop reporter on K4 kissing-loop RNA reporter for `GCCGUACGCAUGGAUACCAGUCUAAGAGUGAUGUUCUUACCGAUUGCGCCUGGAUCAUUAGACCCUUGGCAGCCAUGCGUACGGC`
result: 155 nM

query: Query apparent KD of K4 kissing-loop reporter on K4 kissing-loop RNA reporter for `GCCGUAGAUUGAAGGAGCGGGAGAGGGAAAGUGAUGUUUUCUCUAUGACGGCGUCCUCGAUCCCAGGUAGGUCGCAAUCUACGGC`
result: 137 nM

query: Query apparent KD of K4 kissing-loop reporter on K4 kissing-loop RNA reporter for UGAUACCAGACGGCCGCCACUAGAGCUAGCAAAGCUAGCAAGUGAUGUUUGAGGAGUGAUGUUCCUAGGACCGGGUCUGGUAUCU [TrypBX 2 #Palindromic #SwitchBubble #StaticStem]
result: 103 nM

query: Query apparent KD of K4 kissing-loop reporter on K4 kissing-loop RNA reporter for GGAGUUACCUGGGAUACCAGUCGGAGUCUCAGAGCUCGGAGUGAUGUUCUGGGAUGUUUCGGCCCUUGGCAGCUCUGGGACUCCU [#2 Exclusion - Theophylline B Attempt #17 (HarryS)]
result: 698 nM

* * *

tested on: MS2 coat protein; test: apparent KD of MS2 coat protein; higher = weaker reporter binding; details: Eterna round: R107; input ligand: tryptophan 2.4 mM
Below is a list of entries, each paired with its recorded apparent KD of MS2 coat protein value.
Return type: number; implicit unit nM.

Please review the following examples before continuing.
| sequenceData | readoutValue |
| --- | --- |
| UAAUAAUCCAGGGUGUAGGUAAUAACAGAUACCAGCCAGAUAACUGGCCCUUGGCAGCUGAAAACCUGAGGAUCACCCAGGUAAA [TheoAS 23 #OpenEnded #MS2Late #AlternativeMS2] | 62.6 |
| CCUAUGCAGUCGGCCGCCACUGAAAUCAAUAAGAUUACCUCAGAAACAUGAGGAUCACCCAUGUACAGGACCGGGACUGUAUAGG [Ex Tryptophan B 16] | 84.3 |
| CUAUGGAUAAGAAGGAGCGUCGAAAAUGGGUAAACAUGAGGAUCACCCAUGUAAAGGGAACGACAGGUAGGUCGCUUAUUUAUAG [AstromonsSSArgB#7] | 192 |

query: I would be grateful if you could share the reported apparent KD of MS2 coat protein for UGGUAGGUAGGAAGGAGCGCAUACUUCACAUGAGGAUCACCCAUGUCGAGACGUGAGUCAGUGCAGGUAGGUCGCCUAGUUAUGA [Same State - Arginine B (Freestyle 23)] .
result: 30.3

query: I would be grateful if you could share the reported apparent KD of MS2 coat protein for CGGUCGGUCGGUCGGUGAUUAUGGGAUGAAGGAGCGUGGGAAGCUACAGGUAGGUCGCAUCCGAAACAUGAGGAUCACCCAUGUU [#21 Same State - Arginine A] .
result: 18.5
